Documented Dmax across a set of molecules
TARGET SYSTEM: BRAF G469A (Homo sapiens, UniProt P15056, G469A)
Construct: Horizon Discovery (HCT-116 BRAF−/− cells); host or cells: HCT-116 BRAF−/− cells, clone 34, lentiviral transduction
Sequence (P15056 whole entry G469A): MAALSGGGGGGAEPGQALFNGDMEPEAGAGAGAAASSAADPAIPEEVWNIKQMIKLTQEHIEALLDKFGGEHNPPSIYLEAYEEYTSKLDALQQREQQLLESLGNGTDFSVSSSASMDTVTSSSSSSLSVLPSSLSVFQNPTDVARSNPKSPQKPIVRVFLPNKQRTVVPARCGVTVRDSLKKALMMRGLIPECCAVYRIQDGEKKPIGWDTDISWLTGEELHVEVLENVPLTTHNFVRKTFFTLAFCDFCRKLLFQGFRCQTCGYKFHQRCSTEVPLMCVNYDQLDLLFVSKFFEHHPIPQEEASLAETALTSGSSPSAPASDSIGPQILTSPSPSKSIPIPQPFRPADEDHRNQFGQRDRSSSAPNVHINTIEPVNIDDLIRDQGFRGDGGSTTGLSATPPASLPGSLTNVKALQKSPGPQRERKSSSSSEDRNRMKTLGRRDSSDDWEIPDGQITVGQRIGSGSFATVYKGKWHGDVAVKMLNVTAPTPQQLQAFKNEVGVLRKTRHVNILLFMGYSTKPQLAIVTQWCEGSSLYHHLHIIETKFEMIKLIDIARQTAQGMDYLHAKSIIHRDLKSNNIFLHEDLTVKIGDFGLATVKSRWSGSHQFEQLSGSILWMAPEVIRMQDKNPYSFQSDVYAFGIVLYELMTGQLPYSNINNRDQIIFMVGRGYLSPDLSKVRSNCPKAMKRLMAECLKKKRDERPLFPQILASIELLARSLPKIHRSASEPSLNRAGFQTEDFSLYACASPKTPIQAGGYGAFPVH
EXPERIMENT NOTES: BRAF HiBiT degradation assay, C-terminal HiBiT-tagged BRAF G469A overexpressed in HCT-116 BRAF−/− cells (clone 34), Nano-Glo HiBiT Lytic assay
Format: cell-based
PROTOCOL CONDITIONS: BRAF G469A (Class 2), HCT-116 BRAF−/− cells; observed Dmax relative to DMSO control

Solved cases below.
CCN(C)S(=O)(=O)Nc1cc(F)cc(-c2cn(-c3ccc(N4CCN(CC5CCN(c6ccc(C7CCC(=O)NC7=O)cn6)CC5)CC4)cc3)nc2-c2ccncc2)c1F (racemic) [Compound 376] : 30 to 70%
CCN(C)S(=O)(=O)Nc1cc(Cl)cc(-c2cn(-c3ccc(N4CCN(CC5CCN(c6ccc(N7CCC(=O)NC7=O)cn6)CC5)CC4)cn3)nc2-c2ccncc2)c1F [Compound 313] : 30 to 70%

Challenge: Find the recorded Dmax belonging to O=C1CCN(c2ccc(N3CCC(CN4CCN(c5cnc(-n6cc(-c7cc(Cl)cc(NS(=O)(=O)N8CCCC8)c7F)c(-c7ccncc7)n6)nc5)CC4)CC3)cc2)C(=O)N1 [Compound 358] and report it.
Response given: 30 to 70%

Challenge: Queued: O=C1CC[C@H](c2ccc(N3CCC(CN4CCN(c5ccc(-n6cc(-c7cc(Cl)cc(NS(=O)(=O)N8CCCC8)c7F)c(-c7ccncc7)n6)cc5F)CC4)CC3)cc2)C(=O)N1 [Compound 364]
Response given: > 70%

Challenge: Queued: O=C1CCC(c2ccc(N3CCC(CN4CCN(c5ccc(-n6cc(-c7cc(Cl)cc(NS(=O)(=O)N8CC[C@@H](F)C8)c7F)c(-c7ccncc7)n6)nc5)CC4)CC3)nc2)C(=O)N1 (mixture of isomers) [Compound 296]
Response given: > 70%

Challenge: Queued: O=C1CC[C@H](c2ccc(N3CCC(CN4CCCN(c5ccc(-n6cc(-c7cc(Cl)cc(NS(=O)(=O)N8CCCC8)c7F)c(-c7ccncc7)n6)c(F)c5)CC4)CC3)cc2)C(=O)N1 [Compound 346]
Response given: < 30%

Challenge: Queued: CCCS(=O)(=O)Nc1cc(Cl)cc(-c2cn(-c3ccc(N4CCN(CC5CCN(c6ccc([C@H]7CCC(=O)NC7=O)cc6)CC5)[C@@H](C)C4)cc3)nc2-c2ccncc2)c1F [Compound 278]
Response given: 30 to 70%

Challenge: Queued: O=C1CCN(c2ccc(N3CCC(CN4CCN(c5ccc(-n6cc(-c7cc(C(F)F)cc(NS(=O)(=O)N8CCCC8)c7F)c(-c7ccncc7)n6)c(F)c5)CC4)CC3)cc2)C(=O)N1 [Compound 356]
Response given: < 30%

----------
TARGET SYSTEM: BRAF G466V (Homo sapiens, UniProt P15056, G466V)
Construct: Horizon Discovery (HCT-116 BRAF−/− cells); host or cells: HCT-116 BRAF−/− cells, clone 8, lentiviral transduction
Sequence (P15056 whole entry G466V): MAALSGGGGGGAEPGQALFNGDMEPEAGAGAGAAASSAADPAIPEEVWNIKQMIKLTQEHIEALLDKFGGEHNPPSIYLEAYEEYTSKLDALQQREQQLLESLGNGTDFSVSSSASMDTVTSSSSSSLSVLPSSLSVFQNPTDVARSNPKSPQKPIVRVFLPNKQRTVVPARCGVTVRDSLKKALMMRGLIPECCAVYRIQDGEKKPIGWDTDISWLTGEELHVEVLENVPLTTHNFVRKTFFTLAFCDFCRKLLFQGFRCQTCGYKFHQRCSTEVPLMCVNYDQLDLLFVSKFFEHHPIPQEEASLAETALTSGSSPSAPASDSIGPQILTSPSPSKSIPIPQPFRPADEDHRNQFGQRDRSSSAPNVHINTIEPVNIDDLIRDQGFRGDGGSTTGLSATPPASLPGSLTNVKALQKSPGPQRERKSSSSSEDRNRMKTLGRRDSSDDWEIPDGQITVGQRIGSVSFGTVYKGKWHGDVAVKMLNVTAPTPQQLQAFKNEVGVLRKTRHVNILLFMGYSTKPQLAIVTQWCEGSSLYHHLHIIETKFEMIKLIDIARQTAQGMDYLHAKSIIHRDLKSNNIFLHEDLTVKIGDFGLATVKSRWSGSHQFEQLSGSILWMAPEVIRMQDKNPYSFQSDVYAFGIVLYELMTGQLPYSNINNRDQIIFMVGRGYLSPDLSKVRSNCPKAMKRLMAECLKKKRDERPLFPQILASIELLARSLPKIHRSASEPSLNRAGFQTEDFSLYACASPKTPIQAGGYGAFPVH
EXPERIMENT NOTES: BRAF HiBiT degradation assay, C-terminal HiBiT-tagged BRAF G466V overexpressed in HCT-116 BRAF−/− cells (clone 8), Nano-Glo HiBiT Lytic assay
Assay type: cell-based
PROTOCOL CONDITIONS: HCT-116; BRAF G466V; percentage protein degraded at maximal compound effect relative to DMSO
Documented Dmax across a set of compounds

Solved cases below.
CCN(C)S(=O)(=O)Nc1cccc(-c2nc(C)sc2-c2ccnc(Nc3ccc(N4CCN(CC5CCN(c6ccc(C7CCC(=O)NC7=O)cn6)CC5)CC4)cn3)n2)c1F (racemic) : 30 to 70%
CCCS(=O)(=O)Nc1cccc(-c2cn(-c3ccc(N4CCN(CC5CCN(c6ccc(C7CCC(=O)NC7=O)cc6F)CC5)CC4)cc3)nc2-c2ccncc2)c1F (racemic) : 30 to 70%
CCCS(=O)(=O)Nc1cccc(-c2nc(C(C)(C)C)sc2-c2ccnc(NC3CC4(C3)CN(C(=O)C3(F)CCN(CC5CCN(c6ccc(C7CCC(=O)NC7=O)cc6)CC5)CC3)C4)n2)c1F (racemic) : < 30%
CCCS(=O)(=O)Nc1cccc(-c2nc(C(C)(C)C)sc2-c2ccnc(Nc3cnn(CC4CCN(C(=O)C[C@H]5CCN(c6ccc(C7CCC(=O)NC7=O)cc6)C5)CC4)c3)n2)c1F (mixture of isomers) : < 30%
CCCS(=O)(=O)Nc1cccc(-c2nc(C3CCN(C(=O)C4CCN(CC5CCN(c6ccc(C7CCC(=O)NC7=O)cn6)CC5)CC4)CC3)sc2-c2ccncc2)c1F (racemic) : 30 to 70%

Challenge: Find the recorded Dmax belonging to CCCS(=O)(=O)Nc1cccc(-c2nc(C(C)(C)C)sc2-c2ccnc(Nc3ccc(N4CCN(C(=O)CC5(O)CCN(c6ccc(NC7CCC(=O)NC7=O)cc6F)CC5)CC4)c(F)c3)n2)c1F (racemic) and report it.
Response given: < 30%

Challenge: Queued: CCCS(=O)(=O)Nc1cccc(-c2nc(C(C)(C)C)sc2-c2ccnc(Nc3cnn(CC4CCN(CC5CCN(c6ccc7c(=O)n(C8CCC(=O)NC8=O)ccc7c6)CC5)CC4)c3)n2)c1F (racemic)
Response given: < 30%
